Molecular target: membrane LIGHT without residues 81-84 (EL4-NC-LIGHT cells) (human, UniProt O43557 1-240)
Sequence (O43557 other isoform, or with tags, fused parts or gaps): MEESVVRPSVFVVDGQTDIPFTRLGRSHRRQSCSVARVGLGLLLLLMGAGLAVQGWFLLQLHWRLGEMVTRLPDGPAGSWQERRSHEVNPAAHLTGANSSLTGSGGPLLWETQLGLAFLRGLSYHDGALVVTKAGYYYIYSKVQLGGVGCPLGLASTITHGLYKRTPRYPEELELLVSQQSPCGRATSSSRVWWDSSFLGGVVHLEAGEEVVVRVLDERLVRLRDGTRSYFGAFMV
Assay: cell-based or functional assay
For each entry below, report its IC50, inhibition of IL-8 secretion from HT-29 cells (EL4-NC-LIGHT cells) value.

So for 3D12_var13 (antibody, human IgG4, V domains shown, human IgG4 (S241P, L248E, Kabat); also called 3D12 VL4VH1 (var13)) VH: QVQLVQSGAEVKKPGASVKVSCKASDYTFTDSEIHWVRQAPGQGLEWIGEIDPETGGTAYNQKFKGRATLTADKSTSTAYMELSSLRSEDTAVYYCSRETDYFFDYWGQGTLVTVSS VL: DIQMTQSPSSLSASVGDRVTITCRASENIYGALNWYQQKPGKAPKLLIYGATNLAEGVPSRFSGSGSGRDYTLTISSLQPEDVATYYCQNVLSTPWTFGQGTKLEIKR , the logged IC50, inhibition of IL-8 secretion from HT-29 cells (EL4-NC-LIGHT cells) turned out to be 0.45 nM

So for 3B04_var4 (antibody, human IgG4, V domains shown, human IgG4 (S241P, L248E, Kabat); also called 3B04 VL1VH4 (var4)) VH: QVQLVQSGAEVKKPGASVKVSCKASGYTFTDYEMHWVRQAPGQGLEWMGEIDPETGDTAYAQKFQGRVTLTADKSTSTAYMELSSLRSEDTAVYYCSRETDYFFDYWGQGTLVTVSS VL: DIQMTQSPSSLSASVGDRVTITCGASENIYGALNWYQRKQGKAPQLLIYGATNLADGVSSRFSGSGSGRDYTLTISSLQPEDFATYYCQNVLTTPWTFGQGTKLEIKR , the logged IC50, inhibition of IL-8 secretion from HT-29 cells (EL4-NC-LIGHT cells) turned out to be 0.04 nM

So for 3D12_var10 (antibody, human IgG4, V domains shown, human IgG4 (S241P, L248E, Kabat); also called 3D12 VL3VH2 (var10)) VH: QVQLVQSGAEVKKPGASVKVSCKASDYTFTDSEIHWVRQAPGQGLEWIGEIDPETGGTAYNQKFQGRVTLTADKSTSTAYMELSSLRSEDTAVYYCSRETDYFFDYWGQGTLVTVSS VL: DIQMTQSPSSLSASVGDRVTITCGASENIYGALNWYQQKPGKAPKLLIYGATNLADGVPSRFSGSGSGRDYTLTISSLQPEDVATYYCQNVLSTPWTFGQGTKLEIKR , the logged IC50, inhibition of IL-8 secretion from HT-29 cells (EL4-NC-LIGHT cells) turned out to be 0.44 nM
